Sourced from ChEMBL document CHEMBL4622852

# assayed_target: Coagulation factor XII (Homo sapiens, UniProt P00748)
# Sequence (P00748 whole entry): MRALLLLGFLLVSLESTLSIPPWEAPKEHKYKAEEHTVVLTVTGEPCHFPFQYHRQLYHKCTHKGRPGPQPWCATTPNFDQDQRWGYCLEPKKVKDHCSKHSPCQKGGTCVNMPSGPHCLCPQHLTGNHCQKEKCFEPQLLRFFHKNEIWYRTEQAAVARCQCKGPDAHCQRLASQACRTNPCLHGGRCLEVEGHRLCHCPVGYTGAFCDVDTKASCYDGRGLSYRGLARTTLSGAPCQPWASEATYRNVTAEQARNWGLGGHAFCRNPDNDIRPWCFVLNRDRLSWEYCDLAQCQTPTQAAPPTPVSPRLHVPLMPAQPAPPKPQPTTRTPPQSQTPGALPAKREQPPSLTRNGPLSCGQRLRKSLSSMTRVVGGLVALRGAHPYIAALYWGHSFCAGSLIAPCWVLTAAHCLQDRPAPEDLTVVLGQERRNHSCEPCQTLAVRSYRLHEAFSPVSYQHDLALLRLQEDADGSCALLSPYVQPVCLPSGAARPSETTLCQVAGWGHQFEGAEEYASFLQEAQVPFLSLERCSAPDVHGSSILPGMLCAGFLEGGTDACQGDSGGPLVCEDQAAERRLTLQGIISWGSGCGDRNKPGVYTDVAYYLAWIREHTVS
pIC50: −log10 of the molar value.
The entries below come with measured pIC50 values attached.

Here's what some known entries look like.
CC[C@@H](C)[C@@H](NC(C)C(F)F)C(=O)N1C[C@@](C)(O)C[C@H]1C(=O)NCc1ccc2c(N)nccc2c1 (stereo partly drawn) = < 5.00
CC[C@@H](C)[C@@H](NS(=O)(=O)Cc1ccc(Cl)cc1)C(=O)N1C[C@@](C)(C#N)C[C@H]1C(=O)NCc1ccc2c(N)nccc2c1 = < 4.70

Please look at the following compound next.
INPUT: Param readout= pIC50; system= Coagulation factor XII (Homo sapiens, UniProt P00748); entry= `CC[C@@H](C)[C@@H](NS(=O)(=O)Cc1ccc(C(F)(F)F)cc1)C(=O)N1C[C@@](C)(O)C[C@H]1C(=O)NCc1ccc2c(N)nccc2c1` ; returns value.
OUTPUT: < 4.52
